molecular target: β1-3; assay: Affinity to brain targets (panel)
pKi: −log10 of the molar value.
measuredProperty: pKi

Examples from the recorded data:
> print(dat)
                                   molecule  result
1       Cc1nc(N(C)c2ccc(OCCF)cc2)c2ccccc2n1  < 5.00
2  COc1ccc(N(C)c2ncnc3occ(C)c23)cc1 [HD-800, reference compound]  < 5.00

Now take the following molecule into account.
Value sought: pKi, system β1-3, item `Cc1nc(N(C)c2ccc(OCCF)cc2)c2c(C)coc2n1` . Result: < 5.00

====

molecular target: KOR (Homo sapiens); assay: Affinity to brain targets (panel); type: binding; settings: KOR: kappa opioid receptors
Sequence (P41145 whole entry): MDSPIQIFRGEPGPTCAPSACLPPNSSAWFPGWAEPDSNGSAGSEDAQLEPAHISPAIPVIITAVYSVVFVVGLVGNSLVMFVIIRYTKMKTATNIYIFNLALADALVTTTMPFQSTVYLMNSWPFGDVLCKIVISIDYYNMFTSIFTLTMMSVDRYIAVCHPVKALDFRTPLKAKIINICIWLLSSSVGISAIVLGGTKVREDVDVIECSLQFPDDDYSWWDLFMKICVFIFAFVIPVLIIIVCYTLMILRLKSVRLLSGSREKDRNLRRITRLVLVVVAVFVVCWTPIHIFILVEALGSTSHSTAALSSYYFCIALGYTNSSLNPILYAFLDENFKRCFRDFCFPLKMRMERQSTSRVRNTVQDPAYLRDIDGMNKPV
pKi: −log10 of the molar value.
measuredProperty: pKi

> print(dat)
                                   compound  measuredproperty  result
1  Cc1nc(N(C)c2ccc(OCCF)cc2)c2c(C)coc2n1 [FE-HD-800]               pKi  < 5.00
2  COc1ccc(N(C)c2ncnc3occ(C)c23)cc1 [HD-800, reference compound]               pKi  < 5.00

Consider the record given below.
Lab note: compound Cc1nc(N(C)c2ccc(OCCF)cc2)c2ccccc2n1 [FEMPC-6827] tested on KOR (Homo sapiens); recorded pKi was < 5.00
